Measured values drawn from paper PMC4981864 for this set.

test: Dual quenching assay (acrylamide / 10-DN); assay type: physicochemical; settings: 235 mM acrylamide; 7 μM peptide, 2.1 mM POPC; pH 8
Peptide text beside a SMILES is read from it.
readoutType: percentage of fluorescence quenching, Pep-PC+AC pH8 (%)
Please reply with the bare figure in % and do not write the unit itself.

compound: CC(C)C[C@@H]1NC(=O)[C@H](CS)NC(=O)[C@H](Cc2c[nH]c3ccccc23)NC(=O)[C@H](CCC(=O)O)NC(=O)[C@H](CC(C)C)NC(=O)[C@H](CCC(=O)O)NC(=O)[C@H](CC(C)C)NC(=O)[C@H](CCC(=O)O)NC(=O)[C@H](CC(C)C)NC(=O)[C@H](CCC(=O)O)NC1=O [c[(LE)4WC]] (cyclo(CLELELELEW))
val: 96

Which percentage of fluorescence quenching, Pep-PC+AC pH8 is reported for this compound? O=C(O)CC[C@@H]1NC(=O)[C@H](Cc2c[nH]c3ccccc23)NC(=O)[C@H](CS)NC(=O)[C@H](Cc2c[nH]c3ccccc23)NC(=O)[C@H](CCC(=O)O)NC(=O)[C@H](Cc2c[nH]c3ccccc23)NC(=O)[C@H](CCC(=O)O)NC(=O)[C@H](Cc2c[nH]c3ccccc23)NC(=O)[C@H](CCC(=O)O)NC(=O)[C@H](Cc2c[nH]c3ccccc23)NC1=O [c[(WE)4WC]] (cyclo(CWEWEWEWEW))
82

Please do the same for O=C(O)CC[C@@H]1NC(=O)[C@H](CS)NC(=O)[C@H](Cc2c[nH]c3ccccc23)NC(=O)[C@H](Cc2c[nH]c3ccccc23)NC(=O)[C@H](Cc2c[nH]c3ccccc23)NC(=O)[C@H](Cc2c[nH]c3ccccc23)NC(=O)[C@H](Cc2c[nH]c3ccccc23)NC(=O)[C@H](CCC(=O)O)NC(=O)[C@H](CCC(=O)O)NC(=O)[C@H](CCC(=O)O)NC1=O [c[E4W5C]] as well.
61

Please do the same for O=C(O)CC[C@@H]1NC(=O)[C@H](Cc2c[nH]c3ccccc23)NC(=O)[C@H](CS)NC(=O)[C@H](Cc2c[nH]c3ccccc23)NC(=O)[C@H](CCC(=O)O)NC(=O)[C@H](Cc2c[nH]c3ccccc23)NC(=O)[C@H](CCC(=O)O)NC(=O)[C@H](Cc2c[nH]c3ccccc23)NC1=O [c[(WE)3WC]] (cyclo(CWEWEWEW)) as well.
83

Please do the same for O=C(O)CC[C@@H]1NC(=O)[C@H](Cc2c[nH]c3ccccc23)NC(=O)[C@H](CS)NC(=O)[C@H](Cc2c[nH]c3ccccc23)NC(=O)[C@H](CCC(=O)O)NC(=O)[C@H](Cc2c[nH]c3ccccc23)NC(=O)[C@H](CCC(=O)O)NC(=O)[C@H](Cc2c[nH]c3ccccc23)NC(=O)[C@H](CCC(=O)O)NC(=O)[C@H](Cc2c[nH]c3ccccc23)NC(=O)[C@H](CCC(=O)O)NC(=O)[C@H](Cc2c[nH]c3ccccc23)NC1=O [c[(WE)5WC]] (cyclo(CWEWEWEWEWEW)) as well.
78

---

assay: Dual quenching assay (acrylamide / 10-DN); format: physicochemical; settings: 10% of lipids replaced by 10-DN; 7 μM peptide, 2.1 mM POPC; pH 3
Peptide text beside a SMILES is read from it.
Recorded measurements of percentage of fluorescence quenching, Pep-PC+10-DN pH3, one per entry
Hey, just the number and the unit after it is fine.

Worked cases, percentage of fluorescence quenching, Pep-PC+10-DN pH3 given:
compound: O=C(O)CC[C@@H]1NC(=O)[C@H](CS)NC(=O)[C@H](Cc2c[nH]c3ccccc23)NC(=O)[C@H](Cc2c[nH]c3ccccc23)NC(=O)[C@H](Cc2c[nH]c3ccccc23)NC(=O)[C@H](Cc2c[nH]c3ccccc23)NC(=O)[C@H](Cc2c[nH]c3ccccc23)NC(=O)[C@H](CCC(=O)O)NC(=O)[C@H](CCC(=O)O)NC(=O)[C@H](CCC(=O)O)NC1=O [c[E4W5C]]
val: 52%
--
compound: CC(C)C[C@@H]1NC(=O)[C@H](CS)NC(=O)[C@H](Cc2c[nH]c3ccccc23)NC(=O)[C@H](CCC(=O)O)NC(=O)[C@H](CC(C)C)NC(=O)[C@H](CCC(=O)O)NC(=O)[C@H](CC(C)C)NC(=O)[C@H](CCC(=O)O)NC(=O)[C@H](CC(C)C)NC(=O)[C@H](CCC(=O)O)NC1=O [c[(LE)4WC]] (cyclo(CLELELELEW))
val: 17%
--
compound: O=C(O)CC[C@@H]1NC(=O)[C@H](Cc2c[nH]c3ccccc23)NC(=O)[C@H](CS)NC(=O)[C@H](Cc2c[nH]c3ccccc23)NC(=O)[C@H](CCC(=O)O)NC(=O)[C@H](Cc2c[nH]c3ccccc23)NC(=O)[C@H](CCC(=O)O)NC(=O)[C@H](Cc2c[nH]c3ccccc23)NC1=O [c[(WE)3WC]] (cyclo(CWEWEWEW))
val: 47%
--
compound: O=C(O)CC[C@@H]1NC(=O)[C@H](Cc2c[nH]c3ccccc23)NC(=O)[C@H](CS)NC(=O)[C@H](Cc2c[nH]c3ccccc23)NC(=O)[C@H](CCC(=O)O)NC(=O)[C@H](Cc2c[nH]c3ccccc23)NC(=O)[C@H](CCC(=O)O)NC(=O)[C@H](Cc2c[nH]c3ccccc23)NC(=O)[C@H](CCC(=O)O)NC(=O)[C@H](Cc2c[nH]c3ccccc23)NC1=O [c[(WE)4WC]] (cyclo(CWEWEWEWEW))
val: 40%

Which percentage of fluorescence quenching, Pep-PC+10-DN pH3 is reported for this compound? O=C(O)CC[C@@H]1NC(=O)[C@H](Cc2c[nH]c3ccccc23)NC(=O)[C@H](CS)NC(=O)[C@H](Cc2c[nH]c3ccccc23)NC(=O)[C@H](CCC(=O)O)NC(=O)[C@H](Cc2c[nH]c3ccccc23)NC(=O)[C@H](CCC(=O)O)NC(=O)[C@H](Cc2c[nH]c3ccccc23)NC(=O)[C@H](CCC(=O)O)NC(=O)[C@H](Cc2c[nH]c3ccccc23)NC(=O)[C@H](CCC(=O)O)NC(=O)[C@H](Cc2c[nH]c3ccccc23)NC1=O [c[(WE)5WC]] (cyclo(CWEWEWEWEWEW))
40%
